# Test system: 857933-349-R-J2-PDC complex spheroid viability
# TEST_NAME: Anticancer human tumor 857933-349-R-J2-PDC patient-derived colon adenocarcinoma cell line growth inhibition [POLQ]
# REPORTED_CONDITIONS: second compound 3.16 µM; first compound 0.0316 µM; stronger effect = lower value
OBSERVATION_TYPE: viability, T/C (%)
Answers are plain numbers, in %.

COc1ccc([C@@H](O)c2cc(-c3ncnc4cc(N5CCOCC5)ccc34)c(F)cc2Cl)nn1 + Cc1cccc(N(C)C(=O)C2C(O)CCN2c2nc(C)cc(C(F)(F)F)c2C#N)c1    87.1
CC1COCCN1c1cc(C2(S(C)(=N)=O)CC2)nc(-c2ccnc3[nH]ccc23)n1 (stereo not drawn) + COC1C(OC(N)=O)C(O)C(Oc2ccc3c(O)c(NC(=O)c4ccc(O)c(CC=C(C)C)c4)c(=O)oc3c2C)OC1(C)C    94.6

Kindly consider the entry below.
Tell me the measured viability, T/C of Cn1ncnc1[C@H]1c2n[nH]c(=O)c3cc(F)cc(c23)N[C@@H]1c1ccc(F)cc1 + Cc1cccc(N(C)C(=O)C2C(O)CCN2c2nc(C)cc(C(F)(F)F)c2C#N)c1 , please.
96.2

----------
# Tested on: 857933-349-R-J2-PDC complex spheroid viability
# TEST_NAME: Anticancer human tumor 857933-349-R-J2-PDC cell line growth inhibition [POLQ];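 note: spheroids exposed to compounds for seven days before readout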
# REPORTED_CONDITIONS: second compound 1 µM; first compound 3.16 µM; stronger effect = lower value
OBSERVATION_TYPE: viability, T/C (%)
Answers are plain numbers, in %.

// batch mode: one viability, T/C value per listed entry
1. CC(C)n1c(=O)n(C)c2cnc3cc(F)c(-c4ccc(OCCCN5CCCCC5)nc4)cc3c21 + COC1C(OC(N)=O)C(O)C(Oc2ccc3c(O)c(NC(=O)c4ccc(O)c(CC=C(C)C)c4)c(=O)oc3c2C)OC1(C)C
2. CC1COCCN1c1cc(C2(S(C)(=N)=O)CC2)nc(-c2ccnc3[nH]ccc23)n1 (stereo not drawn) + Nc1ccc(C#CCN(C(=O)Cc2ncc(C(F)(F)F)cc2C(F)(F)F)c2ccc(F)cc2)nn1
3. COc1cc(C2c3cc4c(cc3C(OC3OC5COC(C)OC5C(O)C3O)C3COC(=O)C23)OCO4)cc(OC)c1O (stereo not drawn) + Nc1ccc(C#CCN(C(=O)Cc2ncc(C(F)(F)F)cc2C(F)(F)F)c2ccc(F)cc2)nn1

1: 87.8; 2: 57.6; 3: 33.3

----------
Kindly state pIC50 for each of the entries shown.
# Test system: 857933-349-R-J2-PDC complex spheroid viability
# TEST_NAME: Anticancer human tumor 857933-349-R-J2-PDC cell line growth inhibition [POLQ];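 note: spheroids exposed to compounds for seven days before readout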
# REPORTED_CONDITIONS: curve of first compound; second compound 0.316 µM
pIC50: −log10 of the molar value.

CCCS(=O)(=O)Nc1ccc(F)c(C(=O)c2c[nH]c3ncc(-c4ccc(Cl)cc4)cc23)c1F + COC1C(OC(N)=O)C(O)C(Oc2ccc3c(O)c(NC(=O)c4ccc(O)c(CC=C(C)C)c4)c(=O)oc3c2C)OC1(C)C    5.30
COc1cc2cc(C(=O)CCC(=O)O)sc2cc1OC + Nc1ccc(C#CCN(C(=O)Cc2ncc(C(F)(F)F)cc2C(F)(F)F)c2ccc(F)cc2)nn1    < 5.00
CNCc1ccc(-c2[nH]c3cc(F)cc4c3c2CCNC4=O)cc1 + Cc1cccc(N(C)C(=O)C2C(O)CCN2c2nc(C)cc(C(F)(F)F)c2C#N)c1    < 5.00
COc1cccc2c1C(=O)c1c(O)c3c(c(O)c1C2=O)CC(O)(C(=O)CO)CC3OC1CC(N)C(O)C(C)O1 (stereo not given) + COC1C(OC(N)=O)C(O)C(Oc2ccc3c(O)c(NC(=O)c4ccc(O)c(CC=C(C)C)c4)c(=O)oc3c2C)OC1(C)C    6.49
COc1cc2cc(C(=O)CCC(=O)O)sc2cc1OC + Cc1cccc(N(C)C(=O)C2C(O)CCN2c2nc(C)cc(C(F)(F)F)c2C#N)c1    < 5.00

// batch mode: one pIC50 value per listed entry
1. Cn1ncnc1[C@H]1c2n[nH]c(=O)c3cc(F)cc(c23)N[C@@H]1c1ccc(F)cc1 + COC1C(OC(N)=O)C(O)C(Oc2ccc3c(O)c(NC(=O)c4ccc(O)c(CC=C(C)C)c4)c(=O)oc3c2C)OC1(C)C
2. C=CC(=O)N1CCN(c2nc(=O)n(-c3c(C)ccnc3C(C)C)c3nc(-c4c(O)cccc4F)c(F)cc23)C(C)C1 (stereo not given) + COC1C(OC(N)=O)C(O)C(Oc2ccc3c(O)c(NC(=O)c4ccc(O)c(CC=C(C)C)c4)c(=O)oc3c2C)OC1(C)C
3. CCc1cc2c(N3CCc4c(cc(Cn5ccnc5)cc4-c4cn(C)nc4C(F)(F)F)C3=O)ccnc2c(OC)n1 + Cc1cccc(N(C)C(=O)C2C(O)CCN2c2nc(C)cc(C(F)(F)F)c2C#N)c1
4. CC(C)n1c(=O)n(C)c2cnc3cc(F)c(-c4ccc(OCCCN5CCCCC5)nc4)cc3c21 + COC1C(OC(N)=O)C(O)C(Oc2ccc3c(O)c(NC(=O)c4ccc(O)c(CC=C(C)C)c4)c(=O)oc3c2C)OC1(C)C
5. O=C(Nc1ccc(O)c(NS(=O)(=O)c2ccc(F)cc2)c1)c1ccc(-c2ccccc2)cc1 + COC1C(OC(N)=O)C(O)C(Oc2ccc3c(O)c(NC(=O)c4ccc(O)c(CC=C(C)C)c4)c(=O)oc3c2C)OC1(C)C

1. < 7.00
2. < 5.00
3. < 5.00
4. < 5.00
5. < 5.00
